Can you tell me zone of inhibition at 1000 µg/mL for the items I'm about to list?
Test system: Bacillus subtilis
Assay Notes: Antibacterial activity against Bacillus subtilis RCMB 010063 at 1 mg/ml after 24 hrs by agar well diffusion method
Type: functional
Condition Details: RCMB 010063, 24 h, read-out: DIZ
Numbers only, in mm.

See these solved cases before continuing.
Using the record for COc1ccc2cc(C(C)C(=O)Nc3ccc(S(=O)(=O)Nc4cc(C)on4)cc3)ccc2c1 (stereo not drawn) , state its measured zone of inhibition at 1000 µg/mL.
21.7

Using the record for COc1ccc2cc(C(C)C(=O)Nc3ccc(C(=O)O)cc3)ccc2c1 (stereo not drawn) , state its measured zone of inhibition at 1000 µg/mL.
23.7

Using the record for COc1ccc2cc(C(C)C3=N/C(=C/c4ccc(F)cc4)C(=O)O3)ccc2c1 (stereo not drawn) , state its measured zone of inhibition at 1000 µg/mL.
20.6

Using the record for COc1ccc2cc(C(C)C(=O)NC(C)C(=O)O)ccc2c1 (stereo not drawn) , state its measured zone of inhibition at 1000 µg/mL.
15.8

Using the record for COc1ccc2cc(C(C)C(=O)NCC(=O)O)ccc2c1 (stereo not drawn) , state its measured zone of inhibition at 1000 µg/mL.
16.4

Parameter requested: zone of inhibition at 1000 µg/mL. Apply to each item below.
1. COc1ccc2cc(C(C)C(=O)NNC(=O)C(C)c3ccc4cc(OC)ccc4c3)ccc2c1 (stereo not drawn)
2. COc1ccc2cc(C(C)C3=N/C(=C/c4ccc(Cl)cc4)C(=O)O3)ccc2c1 (stereo not drawn)
3. COc1ccc2cc(C(C)C(=O)Nc3ccc(C)cc3)ccc2c1 (stereo not drawn)
4. COc1ccc2cc(C(C)C(=O)NCCNC(=O)C(C)c3ccc4cc(OC)ccc4c3)ccc2c1 (stereo not drawn)
5. COc1ccc2cc(C(C)C(=O)Nc3ccc(S(=O)(=O)Nc4ncccn4)cc3)ccc2c1 (stereo not drawn)
6. COc1ccc2cc(C(C)C(=O)Nc3ccc(S(=O)(=O)NC(C)=O)cc3)ccc2c1 (stereo not drawn)

19.4
15
17.2
14.5
28.7
23.4

Parameter requested: zone of inhibition at 1000 µg/mL. Apply to each item below.
1. COc1ccc2cc(C(C)C(=O)Nc3ccc4c(c3)Sc3ccccc3N4)ccc2c1 (stereo not drawn)
2. COc1ccc2cc(C(C)C(=O)NCc3n[nH]c(=S)n3N)ccc2c1 (stereo not drawn)

1. 24.6
2. 23.7

###

Test system: Aspergillus ochraceus
Assay Notes: Antifungal activity against Aspergillus ochraceus RCMB 02593
Type: functional
Measured Endpoint: MIC

See these solved cases before continuing.
Using the record for COc1ccc2cc(C(C)C(=O)Nc3ccc(S(=O)(=O)NC(C)=O)cc3)ccc2c1 (centres undefined) , state its measured MIC.
15.6 µg/mL

Using the record for COc1ccc2cc(C(C)C(=O)Nc3ccc(S(=O)(=O)Nc4cc(C)on4)cc3)ccc2c1 (centres undefined) , state its measured MIC.
7.81 µg/mL

Using the record for COc1ccc2cc(C(C)C(=O)Nc3ccc4c(c3)Sc3ccccc3N4)ccc2c1 (centres undefined) , state its measured MIC.
15.6 µg/mL

Parameter requested: MIC. Apply to each item below.
1. COc1ccc2cc(C(C)C(=O)NCc3n[nH]c(=S)n3N)ccc2c1 (centres undefined)
2. COc1ccc2cc(C(C)C(=O)Nc3ccc(C(=O)O)cc3)ccc2c1 (centres undefined)
3. OC(Cn1cncn1)(Cn1cncn1)c1ccc(F)cc1F
4. COc1ccc2cc(C(C)C(=O)Nc3ccc(S(=O)(=O)Nc4ncccn4)cc3)ccc2c1 (centres undefined)
5. COc1ccc2cc(C(C)C3=N/C(=C/c4ccc(F)cc4)C(=O)O3)ccc2c1 (centres undefined)
6. COc1ccc2cc(C(C)C(=O)NCc3n[nH]c(=S)[nH]3)ccc2c1 (centres undefined)

15.6 µg/mL
7.81 µg/mL
1.95 µg/mL
3.9 µg/mL
15.6 µg/mL
7.81 µg/mL

Measured values drawn from ChEMBL document CHEMBL3045595 for this set.
